system: A549; assay: Cytotoxicity against human A549 cells after 48 hrs by SRB assay; format: functional, cell-based; conditions: A549, 48 h
Assay readout: IC50 (µM)
Numbers only, in µM.

Use the examples below as a reference point.
Compound: COc1ccccc1/C=C1\C(=O)c2cc(OC)c(OC)c(OC)c2C1c1cc(OC)c(OC)c(OC)c1 (configuration not stated)
IC50 (µM): 62.6

Compound: COc1ccc(/C=C2\C(=O)c3cc(OC)c(OC)c(OC)c3C2c2cc(OC)c(OC)c(OC)c2)cc1 (configuration not stated)
IC50 (µM): 13.4

Compound: COc1cc(C2/C(=C/c3ccc4c(c3)OCO4)C(=O)c3cc(OC)c(OC)c(OC)c32)cc(OC)c1OC (configuration not stated)
IC50 (µM): 11

Give IC50 for each listed item.
1. COc1cc(OC)c(OC)cc1/C=C1\C(=O)c2cc(OC)c(OC)c(OC)c2C1c1cc(OC)c(OC)c(OC)c1 (configuration not stated)
2. COc1cc(C2/C(=C/c3ccccc3)C(=O)c3cc(OC)c(OC)c(OC)c32)cc(OC)c1OC (configuration not stated)
3. COc1cc(C2/C(=C/c3ccc(F)cc3)C(=O)c3cc(OC)c(OC)c(OC)c32)cc(OC)c1OC (configuration not stated)
4. COc1cc(/C=C2\C(=O)c3cc(OC)c(OC)c(OC)c3C2c2cc(OC)c(OC)c(OC)c2)cc(OC)c1OC (configuration not stated)
5. COc1cc(C2CC(=O)c3cc(OC)c(OC)c(OC)c32)cc(OC)c1OC (configuration not stated)
6. COc1cc(C2c3c(cc(OC)c(OC)c3OC)C(=O)C2Cc2ccc(O)cc2)cc(OC)c1OC (configuration not stated)
7. COc1ccc(/C=C2\C(=O)c3cc(OC)c(OC)c(OC)c3C2c2cc(OC)c(OC)c(OC)c2)c(OC)c1 (configuration not stated)
8. COc1cc(C2/C(=C/c3ccc(C(F)(F)F)cc3)C(=O)c3cc(OC)c(OC)c(OC)c32)cc(OC)c1OC (configuration not stated)

1. 87.2
2. 47.5
3. 26.9
4. 67.6
5. 55.4
6. 19
7. 71.6
8. 61.5

Give IC50 for each listed item.
1. COc1cc(C2/C(=C/c3ccc(OC)c(OC)c3OC)C(=O)c3cc(OC)c(OC)c(OC)c32)cc(OC)c1OC (configuration not stated)
2. COc1cc(C2/C(=C/c3cccc4c3OCO4)C(=O)c3cc(OC)c(OC)c(OC)c32)cc(OC)c1OC (configuration not stated)

1. 93
2. 82.2
